# Test system: B16-F10
# PROTOCOL TEXT: Antiproliferative activity against mouse B16F10 cells after 48 hrs by MTT based ELISA assay
# Assay type: functional, cell-based
# CONDITION LABEL: B16-F10, 48 h
IC50: recorded values
MEASURED PARAMETER: IC50 (µg/mL)

>>> print(df.to_string())
                              record_smiles  quantitative_result
0  O=C(/C=C/c1ccccc1)NS(=O)(=O)c1ccc(Cl)cc1                  2.2
1  O=C(/C=C/c1ccc(Cl)cc1)NS(=O)(=O)c1ccc(Cl)cc1                  2.5
2  COc1ccc(/C=C/C(=O)NS(=O)(=O)c2ccc(F)cc2)cc1                  5.1

* * *

# PROTOCOL TEXT: Inhibition of bovine brain tubulin polymerization after 20 mins by turbidimetric analysis
# Design: species or system Bos taurus
Mark each entry criterion met if its IC50 sits below 60 µg/mL, and criterion not met for all others.

                               record_smiles     classification
 0  O=C(/C=C/c1ccc(Br)cc1)NS(=O)(=O)c1ccccc1  criterion not met
 1   Cc1ccc(S(=O)(=O)NC(=O)/C=C/c2ccccc2)cc1  criterion not met
 2  O=C(/C=C/c1ccc(Br)cc1)NS(=O)(=O)c1ccc(F)cc1      criterion met
 3  O=C(/C=C/c1ccccc1)NS(=O)(=O)c1ccc(Cl)cc1      criterion met
 4  O=C(/C=C/c1ccccc1[N+](=O)[O-])NS(=O)(=O)c1ccc(Br)cc1  criterion not met
 5  O=C(/C=C/c1ccc([N+](=O)[O-])cc1)NS(=O)(=O)c1ccc(Br)cc1  criterion not met
 6  Cc1ccc(S(=O)(=O)NC(=O)/C=C/c2ccc(Br)cc2)cc1  criterion not met
 7  O=C(/C=C/c1ccc(Cl)cc1)NS(=O)(=O)c1ccccc1      criterion met
 8  CN(C)c1ccc(/C=C/C(=O)NS(=O)(=O)c2ccc(Br)cc2)cc1      criterion met
 9  O=C(/C=C/c1ccccc1)NS(=O)(=O)c1ccc(Br)cc1  criterion not met
10  O=C(/C=C/c1ccc(F)cc1)NS(=O)(=O)c1ccc(Br)cc1      criterion met

* * *

# Tested on: B16-F10
# PROTOCOL TEXT: Antiproliferative activity against mouse B16F10 cells after 48 hrs by MTT based ELISA assay
# Type: functional, cell-based
# CONDITION LABEL: B16-F10, 48 h
Mark each entry rule met if its IC50 sits below 5 µg/mL, and rule not met for all others.

In [3]: df
Out[3]:
                              record_smiles  classification
0  O=C(/C=C/c1ccc(F)cc1)NS(=O)(=O)c1ccc(Cl)cc1        rule met
1  COc1ccc(/C=C/C(=O)NS(=O)(=O)c2ccccc2)cc1    rule not met
2  Cc1ccc(S(=O)(=O)NC(=O)/C=C/c2ccc(Cl)cc2)cc1        rule met
3   O=C(/C=C/c1ccc(F)cc1)NS(=O)(=O)c1ccccc1        rule met
4  CN(C)c1ccc(/C=C/C(=O)NS(=O)(=O)c2ccc(F)cc2)cc1        rule met
5  COc1ccc(/C=C/C(=O)NS(=O)(=O)c2ccc(Cl)cc2)cc1    rule not met
6  O=C(/C=C/c1ccc([N+](=O)[O-])cc1)NS(=O)(=O)c1ccc(F)cc1        rule met
7  Cc1ccc(S(=O)(=O)NC(=O)/C=C/c2ccc(F)cc2)cc1        rule met
8  COc1ccc(/C=C/C(=O)NS(=O)(=O)c2ccc(Br)cc2)cc1    rule not met
9  O=C(/C=C/c1ccc(Br)cc1)NS(=O)(=O)c1ccccc1        rule met

* * *

# Test system: B16-F10
# PROTOCOL TEXT: Antiproliferative activity against mouse B16F10 cells after 48 hrs by MTT based ELISA assay
# Assay type: functional, cell-based
# CONDITION LABEL: B16-F10, 48 h
MEASURED PARAMETER: log10 IC50 (log10 of the value in µg/mL)

>>> df
                               record_smiles  study_target  measured_parameter  quantitative_result
 0  O=C(/C=C/c1ccc(Br)cc1)NS(=O)(=O)c1ccc(F)cc1       B16-F10          log10 IC50                 0.08
 1  O=C(/C=C/c1ccccc1)NS(=O)(=O)c1ccc(Br)cc1       B16-F10          log10 IC50                 0.59
 2  COc1ccc(/C=C/C(=O)NS(=O)(=O)c2ccc(C)cc2)cc1       B16-F10          log10 IC50                 1.09
 3  O=C(/C=C/c1ccc(Br)cc1)NS(=O)(=O)c1ccc(Cl)cc1       B16-F10          log10 IC50                 0.72
 4  O=C(/C=C/c1ccc([N+](=O)[O-])cc1)NS(=O)(=O)c1ccccc1       B16-F10          log10 IC50                 0.68
 5      O=C(/C=C/c1ccccc1)NS(=O)(=O)c1ccccc1       B16-F10          log10 IC50                 0.54
 6  O=C(/C=C/c1ccc([N+](=O)[O-])cc1)NS(=O)(=O)c1ccc(Cl)cc1       B16-F10          log10 IC50                 1.14
 7  O=C(/C=C/c1ccc(Cl)cc1)NS(=O)(=O)c1ccccc1       B16-F10          log10 IC50                 0.34
 8  Cc1ccc(S(=O)(=O)NC(=O)/C=C/c2ccc(N(C)C)cc2)cc1       B16-F10          log10 IC50                 0.63
 9  O=C(/C=C/c1ccc(F)cc1)NS(=O)(=O)c1ccc(Br)cc1       B16-F10          log10 IC50                 0.45
10  O=C(/C=C/c1ccccc1[N+](=O)[O-])NS(=O)(=O)c1ccc(Cl)cc1       B16-F10          log10 IC50                 0.82

* * *

# Tested on: B16-F10
# PROTOCOL TEXT: Antiproliferative activity against mouse B16F10 cells after 48 hrs by MTT based ELISA assay
# Format: functional, cell-based
# CONDITION LABEL: B16-F10, 48 h
MEASURED PARAMETER: IC50

In [3]: df
Out[3]:
                              record_smiles  measured_parameter      result
0  CN(C)c1ccc(/C=C/C(=O)NS(=O)(=O)c2ccccc2)cc1                IC50   2.3 µg/mL
1  CN(C)c1ccc(/C=C/C(=O)NS(=O)(=O)c2ccc(Cl)cc2)cc1                IC50   2.8 µg/mL
2  O=C(/C=C/c1ccc(Cl)cc1)NS(=O)(=O)c1ccc(Br)cc1                IC50   2.8 µg/mL
3  Cc1ccc(S(=O)(=O)NC(=O)/C=C/c2ccc([N+](=O)[O-])cc2)cc1                IC50  13.5 µg/mL
4   Cc1ccc(S(=O)(=O)NC(=O)/C=C/c2ccccc2)cc1                IC50  13.8 µg/mL

* * *

# PROTOCOL TEXT: Inhibition of bovine brain tubulin polymerization after 20 mins by turbidimetric analysis
# Set-up: species or system Bos taurus
Mark each entry criterion met if its IC50 sits below 60 µg/mL, and criterion not met for all others.

>>> df
                                   compound     classification
0  O=C(/C=C/c1ccc(Cl)cc1)NS(=O)(=O)c1ccc(Cl)cc1      criterion met
1  O=C(/C=C/c1ccccc1[N+](=O)[O-])NS(=O)(=O)c1ccc(F)cc1  criterion not met
2  O=C(/C=C/c1ccc(Br)cc1)NS(=O)(=O)c1ccc(Cl)cc1      criterion met
3  COc1ccc(/C=C/C(=O)NS(=O)(=O)c2ccc(C)cc2)cc1  criterion not met
4   O=C(/C=C/c1ccc(F)cc1)NS(=O)(=O)c1ccccc1      criterion met
5  Cc1ccc(S(=O)(=O)NC(=O)/C=C/c2ccc(N(C)C)cc2)cc1      criterion met
6  COc1ccc(/C=C\c2cc(OC)c(OC)c(OC)c2)cc1O [COMBRETASTATIN A4]      criterion met
7  O=C(/C=C/c1ccc([N+](=O)[O-])cc1)NS(=O)(=O)c1ccc(Cl)cc1  criterion not met
8  COc1ccc(/C=C/C(=O)NS(=O)(=O)c2ccc(Cl)cc2)cc1      criterion met
9  CN(C)c1ccc(/C=C/C(=O)NS(=O)(=O)c2ccccc2)cc1      criterion met

These measurements were taken from ChEMBL document CHEMBL1811765.
